pIC50: −log10 of the molar value.
Data export: pIC50 values recorded with SARS-CoV-2 Mac1 (Severe acute respiratory syndrome coronavirus 2).

- COMPOUND: "NNc1nnc(NN)c2ccccc12 [dihydralazine]"
  pIC50: "3.12 to 3.31"

// query pIC50 value for entry Cc1nc(Nc2ncc(C(=O)Nc3c(C)cccc3Cl)s2)cc(N2CCN(CCO)CC2)n1
4.24 to 4.43

----------
- TARGET ENTITY: UniProt:P0DTD1
- TEST NAME: biochemical
- MEASUREMENT PARAMETERS: read-out: %inhibition
Where a name gives a salt, the structure may show the parent alone.
Lab note: compare inhibition at 100 µM against 50%. Equal or greater, write TRUE. Smaller, write FALSE.

- MOLECULE: "Nc1nc(SCc2ccc([N+](=O)[O-])cc2)c2ncn([C@@H]3O[C@H](CO)[C@@H](O)[C@H]3O)c2n1 [S-(4-Nitrobenzyl)-6-thioguanosine]"
  CLASS LABEL: "FALSE"

Please tell me: is the molecule Nc1c(S(=O)(=O)O)cc(Nc2ccc(Nc3nc(Cl)nc(Nc4cccc(S(=O)(=O)O)c4)n3)c(S(=O)(=O)O)c2)c2c1C(=O)c1ccccc1C2=O [Reactive Blue 2] at or over 50% in terms of inhibition at 100 µM?
TRUE

Please tell me: is the molecule Cc1ccc(C(=O)Nc2ccc(S(=O)(=O)O)c3cc(S(=O)(=O)O)cc(S(=O)(=O)O)c23)cc1NC(=O)c1cccc(NC(=O)Nc2cccc(C(=O)Nc3cc(C(=O)Nc4ccc(S(=O)(=O)O)c5cc(S(=O)(=O)O)cc(S(=O)(=O)O)c45)ccc3C)c2)c1 [Suramin hexasodium] at or over 50% in terms of inhibition at 100 µM?
TRUE

Please tell me: is the molecule O=C(Nc1cc(C(=O)Nc2ccc(S(=O)(=O)O)cc2S(=O)(=O)O)cc(C(=O)Nc2ccc(S(=O)(=O)O)cc2S(=O)(=O)O)c1)Nc1cc(C(=O)Nc2ccc(S(=O)(=O)O)cc2S(=O)(=O)O)cc(C(=O)Nc2ccc(S(=O)(=O)O)cc2S(=O)(=O)O)c1 [NF449 octasodium salt] at or over 50% in terms of inhibition at 100 µM?
TRUE

Please tell me: is the molecule N#CC(C#N)=Cc1ccc(O)c(O)c1 [Tyrphostin 23] at or over 50% in terms of inhibition at 100 µM?
TRUE

----------
- TARGET ENTITY: SARS-CoV-2 Mac1 (Severe acute respiratory syndrome coronavirus 2, UniProt P0DTD1)
- TEST NAME: biochemical
- MEASUREMENT PARAMETERS: 100 µM; inhibitor
Counter-ions that a name gives are not always drawn.
Lab note: compare %inhibition against 9%. Equal or greater, write Met. Smaller, write Not met.

- COMPOUND: "CNC(=O)c1cc(Oc2ccc(NC(=O)Nc3ccc(Cl)c(C(F)(F)F)c3)c(F)c2)ccn1 [Regorafenib Monohydrate]"
  CLASS LABEL: "Not met"

Please tell me: is the compound C[C@@H](O)[C@H]1C(=O)N2C(C(=O)O)=C(S[C@@H]3CN[C@H](C(=O)N(C)C)C3)[C@H](C)[C@H]12 [Meropenem Trihydrate] at or over 9% in terms of %inhibition?
Met

Please tell me: is the compound CN(C)CC/C=C1/c2ccccc2Sc2ccc(Cl)cc21 [Chlorprothixene] at or over 9% in terms of %inhibition?
Met

Please tell me: is the compound Cc1ccc(C(=O)c2ccc(CC(=O)O)n2C)cc1 [Tolmetin Sodium] at or over 9% in terms of %inhibition?
Not met

Please tell me: is the compound CCN(CC)Cc1cc(Nc2ccnc3cc(Cl)ccc23)ccc1O [Amodiaquine dihydrochloride dihydrate] at or over 9% in terms of %inhibition?
Not met

----------
- TARGET ENTITY: SARS-CoV-2 Mac1 (Severe acute respiratory syndrome coronavirus 2, UniProt P0DTD1)
- TEST NAME: biochemical
- MEASUREMENT PARAMETERS: read-out: %inhibition
Where a name gives a salt, the structure may show the parent alone.
Lab note: compare inhibition at 100 µM against 0.4%. Equal or greater, write MET. Smaller, write NOT MET.

Please tell me: is the compound Cc1cnc(Nc2ccc(OCCN3CCCC3)cc2)nc1Nc1cccc(S(=O)(=O)NC(C)(C)C)c1 [Fedratinib (SAR302503, TG101348)] at or over 0.4% in terms of inhibition at 100 µM?
MET

Please tell me: is the compound COc1ccc(CNc2nc(N3CCC[C@H]3CO)ncc2C(=O)NCc2ncccn2)cc1Cl at or over 0.4% in terms of inhibition at 100 µM?
NOT MET

Please tell me: is the compound Nc1ccc(O)c(C(=O)O)c1 at or over 0.4% in terms of inhibition at 100 µM?
NOT MET

Please tell me: is the compound N[C@H](Cc1ccccc1)C(=O)O at or over 0.4% in terms of inhibition at 100 µM?
MET

Please tell me: is the compound CN(C)CCCOc1nn(Cc2ccccc2)c2ccccc12 [Benzydamine HCl] at or over 0.4% in terms of inhibition at 100 µM?
MET

Please tell me: is the compound OCC(CO)N[C@H]1C[C@](O)(CO)[C@@H](O)[C@H](O)[C@H]1O at or over 0.4% in terms of inhibition at 100 µM?
MET

Please tell me: is the compound O=C1C2CC3CC1CC(O)(C3)C2 at or over 0.4% in terms of inhibition at 100 µM?
MET

Please tell me: is the compound COc1c(-c2ccc3cc(NS(C)(=O)=O)ccc3c2)cc(-n2ccc(=O)[nH]c2=O)cc1C(C)(C)C at or over 0.4% in terms of inhibition at 100 µM?
MET

Please tell me: is the compound O=C(OCC(O)CO)c1ccccc1Nc1ccnc2cc(Cl)ccc12 (stereo not drawn) [Glafenine HCl] at or over 0.4% in terms of inhibition at 100 µM?
MET

----------
- TARGET ENTITY: SARS-CoV-2 Mac1 (Severe acute respiratory syndrome coronavirus 2)
- TEST NAME: biochemical
- MEASUREMENT PARAMETERS: 100 µM; inhibitor
Where a name gives a salt, the structure may show the parent alone.
READOUT KIND: %inhibition (%)
Give bare numbers, in %.

Answered cases to consult:
- COMPOUND: "Cc1ccc(Nc2nccc(N(C)c3ccc4c(C)n(C)nc4c3)n2)cc1S(N)(=O)=O [Pazopanib HCl (GW786034 HCl)]"
  READOUT UNITS: "%"
  %inhibition: 31.56
- COMPOUND: "COc1ccc2[nH]c([S@@+]([O-])Cc3ncc(C)c(OC)c3C)nc2c1 [Esomeprazole sodium]"
  READOUT UNITS: "%"
  %inhibition: 0
- COMPOUND: "CCN1CC(CCN2CCOCC2)C(c2ccccc2)(c2ccccc2)C1=O (stereo not drawn) [Doxapram HCl]"
  READOUT UNITS: "%"
  %inhibition: 9.802
- COMPOUND: "O=C(O)c1ccccc1O [Sodium salicylate]"
  READOUT UNITS: "%"
  %inhibition: 0
- COMPOUND: "O=C(O)Cc1ccccc1Nc1c(Cl)cccc1Cl [Diclofenac Potassium]"
  READOUT UNITS: "%"
  %inhibition: 7.108
- COMPOUND: "COc1ccccc1OCCNCC(O)COc1cccc2[nH]c3ccccc3c12 (stereo not drawn) [Carvedilol Phosphate]"
  READOUT UNITS: "%"
  %inhibition: 0
- COMPOUND: "NCc1ccc(S(N)(=O)=O)cc1 [Mafenide hydrochloride]"
  READOUT UNITS: "%"
  %inhibition: 8.456
- COMPOUND: "COCCCOc1ccnc(C[S+]([O-])c2nc3ccccc3[nH]2)c1C (stereo not drawn) [Rabeprazole]"
  READOUT UNITS: "%"
  %inhibition: 0.1163

Consider the additional compound presented here.
// query %inhibition value for entry CCN(CC)CCCC(C)Nc1ccnc2cc(Cl)ccc12 (stereo not drawn) [Chloroquine Phosphate]
4.168

----------
For each record, write down the corresponding inhibition at 100 µM.
- TARGET ENTITY: SARS-CoV-2 Mac1 (Severe acute respiratory syndrome coronavirus 2, UniProt P0DTD1)
- TEST NAME: biochemical
- MEASUREMENT PARAMETERS: read-out: %inhibition
Counter-ions that a name gives are not always drawn.
Answers are plain numbers, in %.

- MOLECULE: "Oc1ccc(Cl)cc1Cc1cc(Cl)ccc1O [Dichlorophene]"
  NUMERIC READOUT: 15
- MOLECULE: "Oc1c(Cl)cc(Cl)cc1Sc1cc(Cl)cc(Cl)c1O [Bithionol]"
  NUMERIC READOUT: 0
- MOLECULE: "OC(c1ccccc1)(c1ccccc1)C12CC[N+](CCOCc3ccccc3)(CC1)CC2 [Umeclidinium bromide]"
  NUMERIC READOUT: 0
- MOLECULE: "CCOC(=O)[C@H](CCc1ccccc1)N[C@@H](C)C(=O)N(CC(=O)O)C1Cc2ccccc2C1 [Delapril Hydrochloride]"
  NUMERIC READOUT: 0.215
- MOLECULE: "COc1ccc(C[C@H](N)C(=O)N[C@H]2[C@@H](O)[C@H](n3cnc4c(N(C)C)ncnc43)O[C@@H]2CO)cc1 [Puromycin 2HCl]"
  NUMERIC READOUT: 4.39
- MOLECULE: "C[C@]12CC[C@H]3[C@@H](CC[C@@]45O[C@@H]4C(O)=C(C#N)C[C@]35C)[C@@H]1CC[C@@H]2O [Trilostane]"
  NUMERIC READOUT: 0
- MOLECULE: "COc1cc2c(cc1OC)[C@H]1CC(=O)[C@H](CC(C)C)CN1CC2 [Tetrabenazine (Xenazine)]"
  NUMERIC READOUT: 18.7
- MOLECULE: "CCN(CC)CCNC(=O)c1ccc(N)cc1 [Procainamide HCl]"
  NUMERIC READOUT: 17.1
- MOLECULE: "CCN(CC)CCOCCOC(=O)C(CC)(CC)c1ccccc1 [Oxeladin Citrate]"
  NUMERIC READOUT: 0.462
- MOLECULE: "CNCCc1ccccn1 [Betahistine mesylate]"
  NUMERIC READOUT: 0

Record inhibition at 100 µM for all entries; do not skip any.
1. O=c1[nH]c2ccccc2n1C1CCN(CCCC(c2ccc(F)cc2)c2ccc(F)cc2)CC1 [Pimozide]
2. Cc1ccccc1C(=O)Nc1ccc(C(=O)N2CCCC(N(C)C)c3ccccc32)cc1 (stereo not drawn) [Mozavaptan]
3. COc1ccc(Cl)c(Nc2nc3ccccc3nc2NS(=O)(=O)c2cccc(NC(=O)C(C)(C)N)c2)c1 [Pilaralisib (XL147)]
4. Cc1cccc(C)c1NC(=O)CN1CCCC1=O [Nefiracetam]

[0, 21.9, 31.9, 8.32]
